15-PGDH (Homo sapiens (Human)): recorded IC50 for assorted compounds

{"lineNotation": "CN(C)c1ncc(-c2cnc3c(C#N)c(C(=O)N4CCCCC4)sc3n2)cn1", "IC50": "3 to 10 nM"}
{"lineNotation": "COc1ccc(-c2cnc3c(C4CC4)c(C(=O)N4CCCCC4)sc3n2)cn1", "IC50": "10 to 20 nM"}
{"lineNotation": "N#Cc1c(C(=O)N2CCCCC2)sc2nc(-c3cncnc3)cnc12", "IC50": "3 to 10 nM"}
{"lineNotation": "O=C(c1sc2nc(-c3cccs3)cnc2c1C(F)(F)F)N1CCCCC1", "IC50": "< 3 nM"}
{"lineNotation": "COc1ncc(-c2cnc3c(C4CC4)c(C(=O)N4CCCCC4)sc3n2)cn1", "IC50": "< 3 nM"}
{"lineNotation": "O=C(c1sc2nc(-c3ccnc(C(F)(F)F)c3)cnc2c1C1CC1)N1CCCCC1", "IC50": "10 to 20 nM"}
{"lineNotation": "COc1ccc(-c2cnc3c(C#N)c(C(=O)N4CCCCC4)sc3n2)cn1", "IC50": "10 to 20 nM"}
{"lineNotation": "CN1Cc2cc(-c3cnc4c(C(F)(F)F)c(C(=O)N5CCCCC5)sc4n3)ccc2C1=O", "IC50": "3 to 10 nM"}
{"lineNotation": "O=C(c1sc2nc(-c3ccc4nccn4c3)cnc2c1C(F)(F)F)N1CCCCC1", "IC50": "3 to 10 nM"}

----------
15-PGDH (Homo sapiens (Human), UniProt P15428) measurements of pIC50, listed per entry.
Sequence (P15428 whole entry): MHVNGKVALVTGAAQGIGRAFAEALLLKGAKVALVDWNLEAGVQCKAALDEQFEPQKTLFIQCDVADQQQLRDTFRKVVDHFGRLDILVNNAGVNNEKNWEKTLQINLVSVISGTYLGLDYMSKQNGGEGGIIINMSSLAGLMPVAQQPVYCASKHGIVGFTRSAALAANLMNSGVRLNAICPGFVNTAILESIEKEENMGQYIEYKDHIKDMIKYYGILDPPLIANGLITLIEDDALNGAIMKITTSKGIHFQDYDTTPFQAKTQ
pIC50: −log10 of the molar value.

{"lineNotation": "CN(C)c1ncc(-c2cnc3c(C(F)(F)F)c(C(=O)N4CCCCC4)sc3n2)cn1", "pIC50": "7.70 to 8.00"}
{"lineNotation": "Nc1cc(-c2cnc3c(C4CC4)c(C(=O)N4CCCCC4)sc3n2)ccn1", "pIC50": "8.00 to 8.52"}
{"lineNotation": "COc1cc(-c2cnc3c(C(F)(F)F)c(C(=O)N4CCCCC4)sc3n2)ccn1", "pIC50": "8.00 to 8.52"}
{"lineNotation": "O=C(c1sc2nc(-c3ccc4ncsc4c3)cnc2c1C(F)(F)F)N1CCCCC1", "pIC50": "7.70 to 8.00"}
{"lineNotation": "O=C(c1sc2nc(-c3cncnc3)cnc2c1C(F)(F)F)N1CCCCC1", "pIC50": "8.00 to 8.52"}
{"lineNotation": "Cc1ccc(-c2cnc3c(C#N)c(C(=O)N4CCCCC4)sc3n2)cn1", "pIC50": "7.70 to 8.00"}
{"lineNotation": "Cc1cc(-c2cnc3c(C4CC4)c(C(=O)N4CCCCC4)sc3n2)ccn1", "pIC50": "8.00 to 8.52"}
{"lineNotation": "O=C(c1sc2nc(-c3cncs3)cnc2c1C(F)(F)F)N1CCCCC1", "pIC50": "8.00 to 8.52"}
{"lineNotation": "O=C(c1sc2nc(-c3ccnc(F)c3)cnc2c1C(F)(F)F)N1CCCCC1", "pIC50": "8.00 to 8.52"}
{"lineNotation": "N#Cc1ccc(-c2cnc3c(C4CC4)c(C(=O)N4CCCCC4)sc3n2)cn1", "pIC50": "7.70 to 8.00"}
{"lineNotation": "CN(C)c1ncc(-c2cnc3c(C4CC4)c(C(=O)N4CCCCC4)sc3n2)cn1", "pIC50": "8.00 to 8.52"}
{"lineNotation": "O=C(c1sc2nc(-c3ccc4nccnc4c3)cnc2c1C1CC1)N1CCCCC1", "pIC50": "8.00 to 8.52"}
{"lineNotation": "N#Cc1c(C(=O)N2CCCCC2)sc2nc(-c3ccccc3)cnc12", "pIC50": "7.70 to 8.00"}
{"lineNotation": "O=C(c1sc2nc(-c3ccccc3)cnc2c1Br)N1CCCCC1", "pIC50": "> 8.52"}
{"lineNotation": "COc1c(C(=O)N2CCCCC2)sc2nc(-c3ccccc3)cnc12", "pIC50": "8.00 to 8.52"}
{"lineNotation": "COc1ccc(-c2cnc3c(C(F)(F)F)c(C(=O)N4CCCCC4)sc3n2)cn1", "pIC50": "8.00 to 8.52"}
{"lineNotation": "CN1Cc2cc(-c3cnc4c(C#N)c(C(=O)N5CCCCC5)sc4n3)ccc2C1=O", "pIC50": "8.00 to 8.52"}
{"lineNotation": "N#Cc1ccc(-c2cnc3c(C(F)(F)F)c(C(=O)N4CCCCC4)sc3n2)cn1", "pIC50": "7.70 to 8.00"}

----------
Recorded IC50 values (15-PGDH (Homo sapiens (Human))) are given below.

{"compound": "O=C(c1sc2nc(-c3cnc(N4CCOCC4)nc3)cnc2c1C(F)(F)F)N1CCCCC1 [Example 89]", "IC50": "10 to 20 nM"}
{"compound": "O=C(c1sc2nc(-c3ccc(N4CCOCC4)nc3)cnc2c1C1CC1)N1CCCCC1 [Example 19]", "IC50": "3 to 10 nM"}
{"compound": "O=C(c1sc2nc(-c3cccnc3)cnc2c1C1CC1)N1CCCCC1 [Example 7]", "IC50": "3 to 10 nM"}
{"compound": "O=C(c1sc2nc(-c3ccc4c(c3)OCCO4)cnc2c1C1CC1)N1CCCCC1 [Example 21]", "IC50": "3 to 10 nM"}
{"compound": "O=C(c1cc2ncc(-c3ccccc3)nc2s1)N1CCCCC1 [Example 100]", "IC50": "10 to 20 nM"}
{"compound": "Cn1cc(-c2cnc3c(C(F)(F)F)c(C(=O)N4CCCCC4)sc3n2)cn1 [Example 68]", "IC50": "3 to 10 nM"}
{"compound": "COc1cc(-c2cnc3c(C#N)c(C(=O)N4CCCCC4)sc3n2)ccn1 [Example 55]", "IC50": "10 to 20 nM"}
{"compound": "CN1Cc2cc(-c3cnc4c(C5CC5)c(C(=O)N5CCCCC5)sc4n3)ccc2C1=O [Example 32]", "IC50": "< 3 nM"}
{"compound": "N#Cc1c(C(=O)N2CCCCC2)sc2nc(-c3ccc(N4CCOCC4)nc3)cnc12 [Example 43]", "IC50": "10 to 20 nM"}
{"compound": "O=C(c1sc2nc(-c3ccc(F)nc3)cnc2c1C1CC1)N1CCCCC1 [Example 27]", "IC50": "3 to 10 nM"}
{"compound": "N#Cc1c(C(=O)N2CCCCC2)sc2nc(-c3ccc4nccnc4c3)cnc12 [Example 45]", "IC50": "3 to 10 nM"}
{"compound": "O=C(c1sc2nc(-c3cccnc3)cnc2c1C(F)(F)F)N1CCCCC1 [Example 74]", "IC50": "< 3 nM"}

Values compiled from patent US20260001892A1.
